In this section, each of the compounds is paired with its reported pEC50.
molecular target: GST-RIPK1 (recombinant GST-RIPK1 kinase domain (residues 1-327)) (Homo sapiens, UniProt Q13546); construct: recombinant GST-RIPK1 kinase domain (residues 1-327) enzyme produced from baculovirus-transfected Sf21 cells; experiment: RIPK1-ADP-Glo Enzymatic Assay; details: ten-point titration, top compound concentration of 100000 nM; 25 nM GST-RIPK1, 300 μM ATP, 3 μM dephosphorylated-MBP; 30 min pre-incubation, 150 min reaction
Sequence (Q13546 1-327): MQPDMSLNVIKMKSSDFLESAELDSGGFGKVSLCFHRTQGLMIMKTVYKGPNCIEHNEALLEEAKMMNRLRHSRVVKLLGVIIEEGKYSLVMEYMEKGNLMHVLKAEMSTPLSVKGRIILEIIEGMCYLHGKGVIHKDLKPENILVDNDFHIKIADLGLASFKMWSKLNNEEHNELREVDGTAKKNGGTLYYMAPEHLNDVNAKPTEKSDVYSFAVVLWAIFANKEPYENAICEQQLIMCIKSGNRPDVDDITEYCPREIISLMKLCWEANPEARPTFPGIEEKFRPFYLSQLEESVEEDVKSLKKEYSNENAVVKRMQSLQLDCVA
Worth noting: pEC50 values are minus log10 of concentrations stated in mol/L.

Look over these answered cases.
O=C1N2[C@@H](CC[C@H]2c2cc(F)cc(F)c2)O[C@]12C[C@@H](Oc1cc(Cl)ncn1)C2 : 6.97
COc1ccc(COC2CC3(C2)OC2CC[C@@H](c4cnccn4)N2C3=O)cc1CC#N (stereo partly drawn) [Example 18.38] : 7.92
O=C1N2[C@@H](CC[C@H]2c2cnccn2)OC12CC(OCc1ccccn1)C2 (stereo partly drawn) : 6.71
O=C1N2C(CC[C@H]2c2cnccn2)OC12CC(OCc1ccc3scnc3c1)C2 (stereo partly drawn) : 7.43

[Q] # input compound: O=C1N2C(CC[C@H]2c2cnccn2)OC12CC(OCc1cc(-n3ccnc3)ccn1)C2 (stereo partly drawn) [Example 18.87] ; wanted: its pEC50
[A] 6.23

[Q] So what does the record say about pEC50 for N#Cc1cccc(F)c1COC1CC2(C1)OC1CC[C@@H](c3cnccn3)N1C2=O (stereo partly drawn) [Example 18.51] ?
[A] 6.68
